B1: library; a variant is named by its letters at N, in order (parent)
chain: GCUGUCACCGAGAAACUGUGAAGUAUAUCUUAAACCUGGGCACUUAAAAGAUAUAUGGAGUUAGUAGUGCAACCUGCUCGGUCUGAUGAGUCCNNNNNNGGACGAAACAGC

- Variants of: B1
- procedure_details: normalized RNA/DNA level with ligand (relative to sTRSVctl = 100) (log10 (% of sTRSVctl)); HEK293T; ligand: cyclic di-GMP (c-di-GMP-II aptamer); ligand concentration (+) RNA-Seq: 1 mM; higher = less ribozyme self-cleavage, higher mRNA level
- assay_context: reporter: mCherry (pCS4076), ligand present: yes
Listed variants paired with reported normalized RNA/DNA level with ligand (log10)
Just the number, please, no unit attached.

Give reported normalized RNA/DNA level with ligand (log10) value for `UAACUU` 1.79

Give reported normalized RNA/DNA level with ligand (log10) value for `CUUAUG` 1.81

Give reported normalized RNA/DNA level with ligand (log10) value for `GCACGU` 1.7

Give reported normalized RNA/DNA level with ligand (log10) value for `GUUAUU` 1.83

Others:
Give reported normalized RNA/DNA level with ligand (log10) value for `UAAGAA` 1.74

Give reported normalized RNA/DNA level with ligand (log10) value for `GAGAAA` 1.72

Give reported normalized RNA/DNA level with ligand (log10) value for `UGACUC` 1.86

Give reported normalized RNA/DNA level with ligand (log10) value for `CCAGUA` 1.73

Give reported normalized RNA/DNA level with ligand (log10) value for `GCACAG` 1.71

Give reported normalized RNA/DNA level with ligand (log10) value for `AACGGG` 1.68

Give reported normalized RNA/DNA level with ligand (log10) value for `UGGAUC` 1.88

From: the supplement of paper PMC6757056
